Molecular target: UniProt Q15858
Test: Electrophysiology (EP) assay, whole-cell patch clamp
Format: cell-based
Conditions: whole-cell patch clamp, hNav1.7 expressing HEK-293 cells; read-out: EP Nav1.7 Ki
Recorded Ki by entry
Answers without a unit are incomplete; give the number and then its unit.

In the examples that follow, each entry is paired with its recorded Ki.
| Structure Smiles String | Experimental Target | Ki |
| --- | --- | --- |
| N#Cc1cc(Oc2ccc(-n3cc(C[C@@H](N)CO)c4ccccc43)cc2)ccc1C(F)(F)F | UniProt Q15858 | 290 nM |
| OC[C@@H](O)Cc1cn(C[C@H](O)CO)c2ccc(-c3ccc(Oc4ccc(F)cc4)cc3)cc12 | UniProt Q15858 | 920 nM |

*Q* # returns recorded Ki (system: UniProt Q15858) for CN(C)CCc1cn(-c2ccc(Oc3ccccc3)cc2)c2ccc(C[C@H](N)CO)cc12
*A* 1310 nM

*Q* # returns recorded Ki (system: UniProt Q15858) for N#Cc1cc(Oc2ccc(-n3cc(C[C@H](O)CO)c4ccccc43)cc2)ccc1C(F)(F)F
*A* 70 nM

###

Target: human Nav1.7 (Homo sapiens (Human), UniProt Q15858)
Sequence (Q15858 other isoform, or with tags, fused parts or gaps): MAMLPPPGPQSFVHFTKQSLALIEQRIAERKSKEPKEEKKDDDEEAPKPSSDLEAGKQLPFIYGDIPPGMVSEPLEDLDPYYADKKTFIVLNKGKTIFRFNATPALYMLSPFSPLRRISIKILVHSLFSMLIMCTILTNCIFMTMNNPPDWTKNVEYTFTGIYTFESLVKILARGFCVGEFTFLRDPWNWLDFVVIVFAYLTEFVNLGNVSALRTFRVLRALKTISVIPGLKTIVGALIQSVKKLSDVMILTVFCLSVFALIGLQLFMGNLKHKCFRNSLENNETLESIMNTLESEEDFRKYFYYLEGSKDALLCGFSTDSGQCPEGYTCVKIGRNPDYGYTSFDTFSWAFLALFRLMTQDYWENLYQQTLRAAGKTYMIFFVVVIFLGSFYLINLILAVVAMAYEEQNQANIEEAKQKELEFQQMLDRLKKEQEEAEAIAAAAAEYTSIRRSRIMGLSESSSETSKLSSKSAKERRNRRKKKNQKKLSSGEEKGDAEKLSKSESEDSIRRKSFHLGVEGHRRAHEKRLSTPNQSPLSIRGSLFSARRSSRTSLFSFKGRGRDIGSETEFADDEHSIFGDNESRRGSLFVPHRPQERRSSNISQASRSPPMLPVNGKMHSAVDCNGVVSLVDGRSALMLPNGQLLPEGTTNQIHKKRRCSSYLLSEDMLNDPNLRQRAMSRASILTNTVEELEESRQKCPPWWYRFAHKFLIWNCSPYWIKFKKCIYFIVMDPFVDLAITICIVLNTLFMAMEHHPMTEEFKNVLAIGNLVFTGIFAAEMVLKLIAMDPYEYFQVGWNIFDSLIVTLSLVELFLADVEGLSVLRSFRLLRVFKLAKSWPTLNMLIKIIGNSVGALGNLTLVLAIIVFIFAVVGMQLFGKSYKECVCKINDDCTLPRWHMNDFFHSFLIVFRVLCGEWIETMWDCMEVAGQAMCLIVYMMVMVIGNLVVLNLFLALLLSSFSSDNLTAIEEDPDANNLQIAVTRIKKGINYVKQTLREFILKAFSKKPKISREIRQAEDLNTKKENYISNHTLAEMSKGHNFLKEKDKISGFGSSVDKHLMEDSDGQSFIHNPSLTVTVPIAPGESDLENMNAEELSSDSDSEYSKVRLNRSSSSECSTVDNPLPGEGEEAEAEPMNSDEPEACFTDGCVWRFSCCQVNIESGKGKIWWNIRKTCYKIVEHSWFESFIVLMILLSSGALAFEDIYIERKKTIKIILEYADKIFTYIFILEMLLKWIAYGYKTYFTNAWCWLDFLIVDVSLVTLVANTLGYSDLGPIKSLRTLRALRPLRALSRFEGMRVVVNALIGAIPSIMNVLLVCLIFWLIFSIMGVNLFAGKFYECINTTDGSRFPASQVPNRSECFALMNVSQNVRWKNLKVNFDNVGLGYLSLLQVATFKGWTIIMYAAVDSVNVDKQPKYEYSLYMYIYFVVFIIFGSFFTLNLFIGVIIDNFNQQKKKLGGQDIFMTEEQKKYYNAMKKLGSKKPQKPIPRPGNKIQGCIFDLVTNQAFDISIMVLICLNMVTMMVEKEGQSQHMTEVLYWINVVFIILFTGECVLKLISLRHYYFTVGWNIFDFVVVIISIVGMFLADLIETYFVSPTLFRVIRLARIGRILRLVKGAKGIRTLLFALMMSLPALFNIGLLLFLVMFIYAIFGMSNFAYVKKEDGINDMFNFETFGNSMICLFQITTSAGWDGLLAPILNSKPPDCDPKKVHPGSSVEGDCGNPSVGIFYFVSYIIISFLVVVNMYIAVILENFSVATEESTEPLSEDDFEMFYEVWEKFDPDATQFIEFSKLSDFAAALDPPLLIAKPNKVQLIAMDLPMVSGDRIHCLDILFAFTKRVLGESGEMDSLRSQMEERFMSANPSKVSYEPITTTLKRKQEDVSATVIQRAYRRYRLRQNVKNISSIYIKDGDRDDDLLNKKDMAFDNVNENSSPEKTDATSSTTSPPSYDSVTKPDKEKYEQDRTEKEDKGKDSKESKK
Experiment: FLIPR or FLIPR TETRA sodium dye assay with KCl and test article pre-incubation
Type: cell-based
Conditions: sodium dye assay with KCl; recombinant human Nav1.7 in HEK293 cells; value ± SEM
Metric: IC50 (µM)
The answer is to be given in µM; state only the numeric part.

In the examples that follow, each entry is paired with its recorded IC50.
| Structure Smiles String | Experimental Target | Meas Value |
| --- | --- | --- |
| O=S(=O)(Nc1ccc(F)cc1)c1ccc(-n2cc(C[C@H](O)CO)c3ccccc32)cc1 | human Nav1.7 (Homo sapiens (Human), UniProt Q15858) | 1.89 |
| NC(=O)c1cccc2c1c(C[C@H](O)CO)cn2-c1ccc(Oc2ccc(F)cc2)cc1 | human Nav1.7 (Homo sapiens (Human), UniProt Q15858) | 0.222 |

API: the following record is the query input.
*Q* Consider the compound N#Cc1cc(Oc2ccc(-n3cc(C[C@@H](N)CO)c4ccccc43)cc2)ccc1C(F)(F)F and give its measured IC50.
*A* 0.304

###

Recorded IC50 by entry
Molecular target: human Nav1.7 (Homo sapiens (Human), UniProt Q15858)
Test: FLIPR or FLIPR TETRA sodium dye assay with KCl and test article pre-incubation
Format: cell-based
Details: read-out: FLIPR Nav1.7 IC50 (μM) ± SEM
Answers without a unit are incomplete; give the number and then its unit.

In the examples that follow, each entry is paired with its recorded IC50.
| Compound | IC50 |
| --- | --- |
| O=C(NO)c1nn(-c2ccc(Oc3ccccc3)cc2)c2ccccc12 [Compound 146] | 8.07 µM |
| NC(CO)Cc1c[nH]c2ccc(-c3ccc(Oc4ccccc4)cc3)cc12 (stereo not shown) [Compound 10] | 0.296 µM |

*Q* Consider the compound NC(=O)c1nn(-c2ccc(Oc3ccccc3)cc2)c2ccccc12 [Compound 145] and give its measured IC50.
*A* 0.326 µM

*Q* Consider the compound N#Cc1ccc(Oc2ccc(-n3cc(C(O)(C(N)=O)C(F)(F)F)c4ccccc43)cc2)cc1C(F)(F)F (stereo not shown) [Compound 192] and give its measured IC50.
*A* 0.475 µM

###

Target: human Nav1.7 (Homo sapiens (Human), UniProt Q15858)
Test: FLIPR or FLIPR TETRA sodium dye assay with KCl and test article pre-incubation
Assay type: cell-based
Details: sodium dye assay with KCl; recombinant human Nav1.7 in HEK293 cells; value ± SEM
Recorded IC50 by entry

| Compound | Meas Value |
| --- | --- |
| N#Cc1cc(Oc2ccc(-n3cc(C[C@H](O)CO)c4c(C(O)CO)cccc43)cc2)ccc1C(F)(F)F (some centres unmarked) | 1.97 µM |
| N#Cc1cc(Oc2ccc(-n3cc(C[C@@H](O)CO)c4c(C(O)CO)cccc43)cc2)ccc1C(F)(F)F (some centres unmarked) | > 20 µM |

*Q* Consider the compound NC(=O)C(N)Cc1c(-c2ccc(Oc3ccccc3)cc2)[nH]c2ccccc12 (centres unmarked) and give its measured IC50.
*A* 0.24 µM

*Q* Consider the compound NC(=O)C(N)Cc1c[nH]c2cc(-c3ccc(Oc4ccccc4)cc3)ccc12 (centres unmarked) and give its measured IC50.
*A* 2.05 µM

*Q* Consider the compound N#Cc1cc(Oc2ccc(-n3cc(C(O)C(=O)NC[C@H](O)CO)c4ccccc43)cc2)ccc1C(F)(F)F (some centres unmarked) and give its measured IC50.
*A* 0.732 µM

*Q* Consider the compound N#Cc1ccc2c(C[C@H](O)CO)cn(-c3ccc(Oc4ccc(F)cc4)cc3)c2c1 and give its measured IC50.
*A* 1.65 µM

*Q* Consider the compound CCOC(=O)C(Cc1c[nH]c2cc(-c3ccc(Oc4ccccc4)cc3)ccc12)NC(=O)OC(C)(C)C (centres unmarked) and give its measured IC50.
*A* 2.52 µM

*Q* Consider the compound NC(=O)C(O)c1cn(-c2ccc(Oc3ccc(C(F)(F)F)cn3)cc2)c2ccccc12 (centres unmarked) and give its measured IC50.
*A* 0.276 µM

*Q* Consider the compound N#Cc1cccc2c(C[C@H](O)CO)cn(-c3ccc(Oc4ccc(F)cc4)cc3)c12 and give its measured IC50.
*A* 0.474 µM

*Q* Consider the compound NC(Cc1cn(-c2ccc(Oc3ccccc3)cc2)c2ccccc12)C(=O)NCCO (centres unmarked) and give its measured IC50.
*A* 0.364 µM

*Q* Consider the compound OCc1cn(-c2ccc(Oc3ccc(C(F)(F)F)cc3)cc2)c2cnccc12 and give its measured IC50.
*A* 0.345 µM

*Q* Consider the compound N#Cc1cc(Oc2ccc(-n3cc(C[C@H](N)CO)c4ccccc43)cc2)ccc1C(F)(F)F and give its measured IC50.
*A* 0.213 µM

*Q* Consider the compound CCN(CC)CCn1cc(C[C@H](O)CO)c2cc(-c3ccc(Oc4ccc(F)cc4)cc3)ccc21 and give its measured IC50.
*A* 1.06 µM

*Q* Consider the compound CC(C)(C)OC(=O)NC(Cc1c[nH]c2cc(-c3ccc(Oc4ccccc4)cc3)ccc12)C(=O)O (centres unmarked) and give its measured IC50.
*A* 1.93 µM

*Q* Consider the compound NC(Cc1c[nH]c2ccc(-c3ccc(Oc4ccccc4)cc3)cc12)C(=O)O (centres unmarked) and give its measured IC50.
*A* > 20 µM

*Q* Consider the compound NC(=O)c1ccc2c(C[C@H](O)CO)cn(-c3ccc(Oc4ccc(F)cc4)cc3)c2c1 and give its measured IC50.
*A* 4.92 µM

*Q* Consider the compound NC(=O)Cn1cc(C[C@H](O)CO)c2cc(-c3ccc(Oc4ccc(F)cc4)cc3)ccc21 and give its measured IC50.
*A* 0.717 µM

Just for reference, patent US9212139B2 is where these values come from.
